- System: NCI/ADR-RES
- Test: NCI tumour cell line growth inhibition, 48 h
Calls of active or inactive are those of the source. No stated cut-off is given here; in the data, active = GI50 up to about 1.1 µM and inactive = higher. Non-standard residues stand in square brackets, D forms with d. Residues, ends and D or L forms follow the SMILES beside them. ξ: configuration not given here. ξLac(3-iPr) = CC(C)CC(O)C(=O)O; NMeV = CN[CH](C(=O)O)C(C)C; NMeA = CN[CH](C)C(=O)O; βAla = NCCC(=O)O
Value Type: GI50

Example entries and their recorded answers appear below.
{"columns": ["Molecule", "Subject Of Test", "GI50"],
 "data": [
  ["CCC(C)C1NC(=O)C2CCCN2C(=O)C(CC(C)C)OC(=O)CCNC(=O)C(C)N(C)C(=O)C(C(C)C)N(C)C1=O (centres undefined) (cyclo([ξLac(3-iPr)]PI[NMeV][NMeA][βAla]); configuration not given here)", "NCI/ADR-RES", "16.1 µM (inactive)"],
  ["CNC(=O)O/N=C1\\N(C)CN(c2ccccc2)C12CCN(CCCC(=O)c1ccc(F)cc1)CC2", "NCI/ADR-RES", "45.9 µM (inactive)"],
  ["O=C(O)CCC(NC(=O)c1ccc(Nc2nc3ccccc3nc2C(=O)O)cc1)C(=O)O (centres undefined)", "NCI/ADR-RES", "> 100 µM (inactive)"],
  ["CCCCN1CN2C(=O)C(C(=O)OCC)C(=O)c3sc4nc(SC)nc1c4c32 (centres undefined)", "NCI/ADR-RES", "19 µM (inactive)"],
  ["c1ccc2cc(OCC3CO3)c(OCC3CO3)cc2c1 (centres undefined)", "NCI/ADR-RES", "4.05 µM (inactive)"]
]}

Value (GI50, NCI/ADR-RES) for record COc1ccc2[nH]c(C(O)(Cc3cccnc3)Cc3cccnc3)cc2c1 = > 100 µM (inactive)

Value (GI50, NCI/ADR-RES) for record CC1(C)OCC(C2OC(OC(=O)c3ccc([N+](=O)[O-])cc3)C3OC(C)(C)OC23)O1 (centres undefined) = 69.5 µM (inactive)
